Source: the supplement of paper PMC10567573

B1: EMD (parent)
chain: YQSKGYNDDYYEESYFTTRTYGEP

- Variants of: B1
- TEST METHOD NOTES: protein stability index of a GFP-peptide fusion (GPS, HEK-293T) (PSI 1-6); higher = more stable;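 also: lentivirally expressed fusions sorted by FACS into six bins by GFP to DsRed ratio, PSI derived from sequencing read proportions per bin multiplied by bin number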
- CONDITION DETAILS: c terminus: a fixed tail appended

{"columns": ["MUTANT ID", "protein stability index"],
 "data": [
  ["P24V", 1.85],
  ["Y21P", 2.76],
  ["Q2F", 1.93],
  ["D9S", 1.57],
  ["Y10Q", 2.67],
  ["E12C", 1.75],
  ["S3G", 2.18],
  ["Q2G", 2.53],
  ["R19Q", 2.88],
  ["Y10G", 2.49],
  ["K4D", 3.33],
  ["Q2Y", 2.01],
  ["N7Y", 1.88],
  ["S14H", 2.13],
  ["Q2D", 3.5]
]}
